Experiment: clinical
Details: human, in vivo, iv, 48 mg/m2
test_readout: AUC(0-inf)
Remember to put the unit after the number in your answer.

What the record says about CC(=O)O[C@@]12CO[C@@H]1C[C@H](O)[C@@]1(C)C(=O)[C@H](O)C3=C(C)[C@@H](OC(=O)[C@H](OC(=O)CN4CCN(C)CC4)[C@@H](NC(=O)OC(C)(C)C)c4ccccc4)C[C@@](O)([C@@H](OC(=O)c4ccccc4)[C@H]21)C3(C)C : AUC(0-inf) is 2660 µg·h/mL

###

Test: clinical
Conditions: human, in vivo, iv, 225 mg/m2
Hi there, I'd appreciate the recorded Cmax for every entry that follows.
Answers are plain numbers, in µg/mL.

compound	Cmax, µg/mL
CC(=O)O[C@@]12CO[C@@H]1C[C@H](O)[C@@]1(C)C(=O)[C@H](O)C3=C(C)[C@@H](OC(=O)[C@H](O)[C@@H](NC(=O)OC(C)(C)C)c4ccccc4)C[C@@](O)([C@@H](OC(=O)c4ccccc4)[C@H]21)C3(C)C [Docetaxel, docetaxel]	1.04

Now consider the entry below.
The measured Cmax associated with CC(=O)O[C@@]12CO[C@@H]1C[C@H](O)[C@@]1(C)C(=O)[C@H](O)C3=C(C)[C@@H](OC(=O)[C@H](OC(=O)CN4CCN(C)CC4)[C@@H](NC(=O)OC(C)(C)C)c4ccccc4)C[C@@](O)([C@@H](OC(=O)c4ccccc4)[C@H]21)C3(C)C [TD-1] reads 149

###

Assay: clinical
Details: human, in vivo, iv, 120 mg/m2
test_readout: AUC(0-inf)
Express the reported value numerically, then name its unit.

Input CC(=O)O[C@@]12CO[C@@H]1C[C@H](O)[C@@]1(C)C(=O)[C@H](O)C3=C(C)[C@@H](OC(=O)[C@H](OC(=O)CN4CCN(C)CC4)[C@@H](NC(=O)OC(C)(C)C)c4ccccc4)C[C@@](O)([C@@H](OC(=O)c4ccccc4)[C@H]21)C3(C)C . Output AUC(0-inf): 6280 µg·h/mL

###

Experiment: clinical
Conditions: human, in vivo, iv, 3 mg/m2
test_readout: AUC(0-inf)
Field: value (include unit after the number)

Noted for CC(=O)O[C@@]12CO[C@@H]1C[C@H](O)[C@@]1(C)C(=O)[C@H](O)C3=C(C)[C@@H](OC(=O)[C@H](OC(=O)CN4CCN(C)CC4)[C@@H](NC(=O)OC(C)(C)C)c4ccccc4)C[C@@](O)([C@@H](OC(=O)c4ccccc4)[C@H]21)C3(C)C : its AUC(0-inf) reads 103 µg·h/mL

###

Assay: clinical
Conditions: human, in vivo, iv, 120 mg/m2
test_readout: Cmax (ng/mL)
One number for each entry, in ng/mL.

smiles_str	test_readout	quantity_unit	quantitative_readout
CC(=O)O[C@@]12CO[C@@H]1C[C@H](O)[C@@]1(C)C(=O)[C@H](O)C3=C(C)[C@@H](OC(=O)[C@H](O)[C@@H](NC(=O)OC(C)(C)C)c4ccccc4)C[C@@](O)([C@@H](OC(=O)c4ccccc4)[C@H]21)C3(C)C	Cmax	ng/mL	702

Now for another entry.
Looking up CC(=O)O[C@@]12CO[C@@H]1C[C@H](O)[C@@]1(C)C(=O)[C@H](O)C3=C(C)[C@@H](OC(=O)[C@H](OC(=O)CN4CCN(C)CC4)[C@@H](NC(=O)OC(C)(C)C)c4ccccc4)C[C@@](O)([C@@H](OC(=O)c4ccccc4)[C@H]21)C3(C)C , I found its Cmax recorded as 68800

meta.source: patent US20160250177A1
